Value source: patent US20240308985A1

Overview of recorded pIC50 for various compounds
SUBJECT OF TEST: UniProt Q99685
EXPERIMENTAL PROTOCOL: MAGL inhibition potency (IC50) assay with 4NPA substrate
Format: biochemical
SETUP CONDITIONS: Methods 2, 3; read-out: MAGL Potency (Detection Method)
pIC50: −log10 of the molar value.

Cc1ccccc1N(C)C(=O)C1CC2(C1)CN(C(=O)c1cc(O)ccc1F)C2 | 6.82 to 7.30

Task item: # get_value(readout= pIC50, system= UniProt Q99685) for CCOc1cc(F)ccc1C(=O)N1CC2(CC(C(=O)N(C)c3ccccc3C)C2)C1
Reply: 5.29 to 6.00

----------
SUBJECT OF TEST: Monoacylglycerol Lipase (MAGL) (Homo sapiens (Human))
Sequence (Q99685 2-303): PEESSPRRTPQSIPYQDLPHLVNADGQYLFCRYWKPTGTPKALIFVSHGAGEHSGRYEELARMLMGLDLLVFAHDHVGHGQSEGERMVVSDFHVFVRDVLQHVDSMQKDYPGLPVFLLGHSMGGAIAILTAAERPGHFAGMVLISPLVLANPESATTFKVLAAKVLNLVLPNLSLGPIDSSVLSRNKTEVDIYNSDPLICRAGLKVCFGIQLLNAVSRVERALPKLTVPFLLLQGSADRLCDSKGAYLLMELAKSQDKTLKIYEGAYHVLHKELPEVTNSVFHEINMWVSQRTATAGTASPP
EXPERIMENTAL PROTOCOL: MAGL inhibition potency (IC50) assay with 4NPA substrate
Assay type: biochemical
SETUP CONDITIONS: Method 4: Cayman Chemical MAGL enzyme, 15 nM; read-out: Potency (MAGL inhibition)
ENDPOINT NAME: IC50

Task item: Find the recorded IC50 belonging to CCOc1cc(F)ccc1C(=O)N1CC2(CC(C(=O)N(C)c3cccnc3C)C2)C1 [Compound 198] and report it.
Reply: > 10 µM

----------
Overview of recorded B: % MAGL activity returning after washout for various molecules
SUBJECT OF TEST: MAGL enzyme (Homo sapiens (Human), UniProt Q99685)
Sequence (Q99685 whole entry): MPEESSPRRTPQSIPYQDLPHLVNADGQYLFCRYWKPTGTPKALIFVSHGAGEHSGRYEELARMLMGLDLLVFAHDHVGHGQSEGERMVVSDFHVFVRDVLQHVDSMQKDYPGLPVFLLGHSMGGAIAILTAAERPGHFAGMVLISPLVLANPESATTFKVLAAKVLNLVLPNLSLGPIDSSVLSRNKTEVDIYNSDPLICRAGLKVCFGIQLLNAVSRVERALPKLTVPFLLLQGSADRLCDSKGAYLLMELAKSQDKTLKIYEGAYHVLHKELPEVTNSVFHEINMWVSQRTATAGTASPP
EXPERIMENTAL PROTOCOL: MAGL reversible inhibition assay (washout)
Assay type: biochemical
Parameters: concentration or dose not given beside the values
SETUP CONDITIONS: relative to control (no inhibitor before washout), immediately following a 30 minute washout
Method: The reversible mechanism of MAGL inhibition of a test compound of Formula (I) can be determined. Flag-tagged MAGL enzyme will be immobilized on anti-Flag beads. […] Colorimetric substrate (4-NPA) will be added and the reaction monitored on a plate reader for 30 minutes to verify complete inhibition. […] The reaction will be monitored for an additional 30 minutes; returning enzymatic activity will indicate reversibility of inhibition. […]

O=C(c1cc(O)ccc1F)N1CC2(CC(n3cc(C(F)(F)F)c(-c4ccccc4F)n3)C2)C1 | <50%
O=C(Oc1ccc([N+](=O)[O-])cc1)N1CCC(C(O)(c2ccc3c(c2)OCO3)c2ccc3c(c2)OCO3)CC1 [JZL-184, reference compound] | <1%

Task item: Find the recorded B: % MAGL activity returning after washout belonging to Cc1cnn(C2CC3(C2)CN(C(=O)c2cc(O)ccc2F)C3)c1-c1cc(F)ccc1Cl (single isomer, unassigned) and report it.
Reply: >50%

Task item: Find the recorded B: % MAGL activity returning after washout belonging to O=C(c1cc(O)ccc1F)N1CC2(CC(n3cc(C4CC4)c(-c4ccccc4F)n3)C2)C1 and report it.
Reply: <50%

Task item: Find the recorded B: % MAGL activity returning after washout belonging to Cc1cn(C2CC3(C2)CN(C(=O)c2cc(O)ccc2F)C3)nc1-c1cc(F)ccc1Cl and report it.
Reply: >50%

----------
SUBJECT OF TEST: UniProt Q99685
EXPERIMENTAL PROTOCOL: MAGL inhibition potency (IC50) assay with 4NPA substrate
Format: biochemical
SETUP CONDITIONS: Method 11: Reaction Biology MAGL enzyme, 25 nM (name: Conc 20); read-out: MAGL Potency (Detection Method)
pIC50: −log10 of the molar value.
Overview of recorded pIC50 for various molecules

Here are 8 molecules together with their reported answers.
Cc1ccc(F)cc1-c1cc(C)n(C2CC3(C2)CN(C(=O)c2ccc(F)cc2OCF)C3)n1 | 5.29 to 6.00
Cc1ccccc1-c1cc(C)n(C2CC3(C2)CN(C(=O)c2ccc(F)cc2OCC(F)(F)F)C3)n1 | 6.30 to 6.82
CCOc1cc(F)ccc1C(=O)N1CC2(CC(n3nc(C)cc3-c3cc(F)ccc3C)C2)C1 | 5.29 to 6.00
CCOc1cc(F)ccc1C(=O)N1CC2(CC(n3nc(-c4ccccc4C)cc3C)C2)C1 | 6.00 to 6.30
Cc1ccc(F)cc1-c1cc(C)n(C2CC3(C2)CN(C(=O)c2ccc(F)cc2OCC(F)(F)F)C3)n1 | 6.30 to 6.82
COc1cc(F)ccc1C(=O)N1CC2(CC(n3nc(-c4cc(F)ccc4C)cc3C(F)(F)F)C2)C1 | 5.29 to 6.00
CCOc1cc(F)ccc1C(=O)N1CC2(CC(n3nc(C)cc3-c3ccccc3C)C2)C1 | 5.29 to 6.00
Cc1cc(-c2ccccc2C)n(C2CC3(C2)CN(C(=O)c2ccc(F)cc2OCC(F)(F)F)C3)n1 | 6.00 to 6.30

Task item: Find the recorded pIC50 belonging to Cc1ccc(F)cc1-c1cc(C(F)(F)F)nn1C1CC2(C1)CN(C(=O)c1ccc(F)cc1OC1CC1)C2 and report it.
Reply: 5.29 to 6.00
